# Tested on: 186277-243-T-J2-PDC complex spheroid viability
# ASSAY_REMARKS: Anticancer human tumor 186277-243-T-J2-PDC patient-derived colon adenocarcinoma cell line growth inhibition
# CONDITION_CONTEXT: second compound 1 µM; first compound 0.000316 µM; hits give low values
For each record, write down the corresponding viability, T/C.
One number for each entry, in %.

Below, each entry is followed by its recorded viability, T/C result.
CC[C@@]1(O)C(=O)OCc2c1cc1n(c2=O)Cc2cc3c(CN(C)C)c(O)ccc3nc2-1 + NC1CC1c1ccc(-c2cccc(O)c2)cc1 :: 90.7
CC(C)CC(NC(=O)CNC(=O)c1cc(Cl)ccc1Cl)B1OC(=O)CC(CC(=O)O)(C(=O)O)O1 (stereo not drawn) + NC1CC1c1ccc(-c2cccc(O)c2)cc1 :: 110
Cn1ncnc1C1c2n[nH]c(=O)c3cc(F)cc(c23)NC1c1ccc(F)cc1 (stereo not drawn) + NC1CCC(NC2CC2c2ccccc2)CC1 :: 111
CC(C)CC(NC(=O)C(Cc1ccccc1)NC(=O)c1cnccn1)B(O)O (stereo not drawn) + NC1CC1c1ccc(-c2cccc(O)c2)cc1 :: 94.3
CC(C)CC(NC(=O)CNC(=O)c1cc(Cl)ccc1Cl)B1OC(=O)CC(CC(=O)O)(C(=O)O)O1 (stereo not drawn) + NC1CCC(NC2CC2c2ccccc2)CC1 :: 113
Cn1ncnc1C1c2n[nH]c(=O)c3cc(F)cc(c23)NC1c1ccc(F)cc1 (stereo not drawn) + NC1CC1c1ccc(-c2cccc(O)c2)cc1 :: 113

For every item in the list below, what is its measured viability, T/C?
1. CC(C)CC(NC(=O)C(Cc1ccccc1)NC(=O)c1cnccn1)B(O)O (stereo not drawn) + NC1CCC(NC2CC2c2ccccc2)CC1
2. CC[C@@]1(O)C(=O)OCc2c1cc1n(c2=O)Cc2cc3c(CN(C)C)c(O)ccc3nc2-1 + NC1CCC(NC2CC2c2ccccc2)CC1

Result string:
[111, 107]

====

# Test system: 186277-243-T-J2-PDC complex spheroid viability
# ASSAY_REMARKS: Anticancer human tumor 186277-243-T-J2-PDC cell line growth inhibition;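 note: 7 day exposure to compounds; 100% = DMSO vehicle control viability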
# CONDITION_CONTEXT: second compound 10 µM; first compound 0.003 µM; hits give low values
viability, T/C less than 40% is MET; viability, T/C greater than or equal to 40% is NOT MET.

Query string: Strictly below 40% in viability, T/C? Nc1ccn(C2OC(CO)C(O)C2(F)F)c(=O)n1 (stereo unspecified) + NC1CCC(NC2CC2c2ccccc2)CC1
Result string: MET

Query string: Dear colleague, could you confirm whether viability, T/C of Nc1ccn(C2OC(CO)C(O)C2(F)F)c(=O)n1 (stereo unspecified) + NC1CC1c1ccc(-c2cccc(O)c2)cc1 falls below 40%? Thanks.
Result string: MET

Query string: Does the reported viability, T/C of CCc1c2c(nc3ccc(O)cc13)-c1cc3c(c(=O)n1C2)COC(=O)[C@]3(O)CC + NC1CC1c1ccc(-c2cccc(O)c2)cc1 stay below 40%?
Result string: MET

Query string: Input Nc1ncn(C2CC(O)C(CO)S2)c(=O)n1 (stereo unspecified) + NC1CCC(NC2CC2c2ccccc2)CC1 ; condition: viability, T/C strictly below 40%. Does it hold?
Result string: NOT MET

Query string: API: query returns whether the compound falls strictly under 40% in viability, T/C. Query: Nc1ncn(C2CC(O)C(CO)S2)c(=O)n1 (stereo unspecified) + NC1CC1c1ccc(-c2cccc(O)c2)cc1
Result string: NOT MET

Query string: Is viability, T/C strictly under 40% for the entry CCc1c2c(nc3ccc(O)cc13)-c1cc3c(c(=O)n1C2)COC(=O)[C@]3(O)CC + NC1CCC(NC2CC2c2ccccc2)CC1 ?
Result string: NOT MET

====

# Test system: 186277-243-T-J2-PDC complex spheroid viability
# ASSAY_REMARKS: Anticancer human tumor 186277-243-T-J2-PDC cell line growth inhibition;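 note: 7 day exposure to compounds; 100% = DMSO vehicle control viability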
# CONDITION_CONTEXT: second compound 10 µM; first compound 0.316 µM; hits give low values
RESULT_TYPE: viability, T/C (%)
Give bare numbers, in %.

Recorded results for 2 compounds are shown here.
COc1ccc([C@@H](O)c2cc(-c3ncnc4cc(N5CCOCC5)ccc34)c(F)cc2Cl)nn1 + NC1CCC(NC2CC2c2ccccc2)CC1 :: 104
O=C(C=Cn1cnc(-c2cc(C(F)(F)F)cc(C(F)(F)F)c2)n1)NNc1cnccn1 + NC1CC1c1ccc(-c2cccc(O)c2)cc1 :: 3.41

For each of the items listed, what is its viability, T/C?
1. CC1COCCN1c1cc(-c2ccnn2C)c2ccnc(-c3ccn[nH]3)c2n1 (stereo not drawn) + NC1CC1c1ccc(-c2cccc(O)c2)cc1
2. CC1COCCN1c1cc(C2(S(C)(=N)=O)CC2)nc(-c2ccnc3[nH]ccc23)n1 (stereo not drawn) + NC1CCC(NC2CC2c2ccccc2)CC1
3. CC(C)c1c(-c2ccccc2)nc2c(C#N)c[nH]n2c1=O + NC1CCC(NC2CC2c2ccccc2)CC1
4. CC1(C)CCC(CN2CCN(c3ccc(C(=O)NS(=O)(=O)c4ccc(NCC5CCOCC5)c([N+](=O)[O-])c4)c(Oc4cnc5[nH]ccc5c4)c3)CC2)=C(c2ccc(Cl)cc2)C1 + NC1CCC(NC2CC2c2ccccc2)CC1
5. CC1(C)CCC(CN2CCN(c3ccc(C(=O)NS(=O)(=O)c4ccc(NCC5CCOCC5)c([N+](=O)[O-])c4)c(Oc4cnc5[nH]ccc5c4)c3)CC2)=C(c2ccc(Cl)cc2)C1 + NC1CC1c1ccc(-c2cccc(O)c2)cc1
6. Nc1ncn(C2CC(O)C(CO)O2)c(=O)n1 (stereo not drawn) + NC1CC1c1ccc(-c2cccc(O)c2)cc1
7. COc1ccc([C@@H](O)c2cc(-c3ncnc4cc(N5CCOCC5)ccc34)c(F)cc2Cl)nn1 + NC1CC1c1ccc(-c2cccc(O)c2)cc1

Result string:
1. 8.45
2. 71
3. 107
4. 96.6
5. 101
6. 124
7. 106

Provide each entry's viability, T/C from the list below.
1. CC(C)c1c(-c2ccccc2)nc2c(C#N)c[nH]n2c1=O + NC1CC1c1ccc(-c2cccc(O)c2)cc1
2. O=C(C=Cn1cnc(-c2cc(C(F)(F)F)cc(C(F)(F)F)c2)n1)NNc1cnccn1 + NC1CCC(NC2CC2c2ccccc2)CC1

Result string:
1. 102
2. 3.33

The following compounds each have a reported value; give each one's viability, T/C.
1. O=C(c1cc(Cc2n[nH]c(=O)c3ccccc23)ccc1F)N1CCN(C(=O)C2CC2)CC1 + NC1CC1c1ccc(-c2cccc(O)c2)cc1
2. CC1COCCN1c1cc(C2(S(C)(=N)=O)CC2)nc(-c2ccnc3[nH]ccc23)n1 (stereo not drawn) + NC1CC1c1ccc(-c2cccc(O)c2)cc1

Result string:
[93.8, 92.7]

====

# Test system: 186277-243-T-J2-PDC complex spheroid viability
# ASSAY_REMARKS: Anticancer human tumor 186277-243-T-J2-PDC cell line growth inhibition; active = viability on the fitted dose curve at most 10% of control; inactive = the rest;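 note: 7 day exposure to compounds; 100% = DMSO vehicle control viability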
# CONDITION_CONTEXT: second compound 3.16 µM; first compound 0.316 µM
Assign a class; possible classes are TRUE for active, FALSE for inactive

Query string: Please share the test call associated with COc1ccc([C@@H](O)c2cc(-c3ncnc4cc(N5CCOCC5)ccc34)c(F)cc2Cl)nn1 + NC1CCC(NC2CC2c2ccccc2)CC1 .
Result string: FALSE

Query string: So what was the verdict on CC1COCCN1c1cc(-c2ccnn2C)c2ccnc(-c3ccn[nH]3)c2n1 (stereo not drawn) + NC1CCC(NC2CC2c2ccccc2)CC1 in this test?
Result string: FALSE

Query string: Look up the recorded call for CC1(C)CCC(CN2CCN(c3ccc(C(=O)NS(=O)(=O)c4ccc(NCC5CCOCC5)c([N+](=O)[O-])c4)c(Oc4cnc5[nH]ccc5c4)c3)CC2)=C(c2ccc(Cl)cc2)C1 + NC1CC1c1ccc(-c2cccc(O)c2)cc1 in this test.
Result string: FALSE

Query string: // param item: CC1(C)CCC(CN2CCN(c3ccc(C(=O)NS(=O)(=O)c4ccc(NCC5CCOCC5)c([N+](=O)[O-])c4)c(Oc4cnc5[nH]ccc5c4)c3)CC2)=C(c2ccc(Cl)cc2)C1 + NC1CCC(NC2CC2c2ccccc2)CC1 ; yields the recorded call
Result string: FALSE

Query string: Just curious, what result did COc1cc(Nc2ncc3c(n2)-c2ccc(Cl)cc2C(c2c(F)cccc2OC)=NC3)ccc1C(=O)O + NC1CCC(NC2CC2c2ccccc2)CC1 get here?
Result string: TRUE

Query string: Hey, what did the test say about COc1cc(Nc2ncc3c(n2)-c2ccc(Cl)cc2C(c2c(F)cccc2OC)=NC3)ccc1C(=O)O + NC1CC1c1ccc(-c2cccc(O)c2)cc1 ?
Result string: FALSE

Query string: // outcome(item) with item = CC(C)c1c(-c2ccccc2)nc2c(C#N)c[nH]n2c1=O + NC1CC1c1ccc(-c2cccc(O)c2)cc1
Result string: FALSE

Query string: GET /call?item= Nc1ncn(C2CC(O)C(CO)O2)c(=O)n1 (stereo not drawn) + NC1CCC(NC2CC2c2ccccc2)CC1 returns the recorded outcome of this test.
Result string: FALSE
